Entries and their T ½ values follow.
Target: T1, Human BCMA (human, UniProt Q02223 1-54, limits assumed)
T1 construct: Soluble analyte in SPR; construct not described; also called huBCMA; B-cell maturation antigen
T1 sequence (looked up): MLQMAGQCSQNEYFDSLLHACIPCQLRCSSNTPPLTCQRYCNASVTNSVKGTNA
Experiment: SPR, IgG immobilised, 37 C

[
  {
    "binder": "L3.PY/L3.KY/H2.QR (antibody, V domains shown, IgG) VH: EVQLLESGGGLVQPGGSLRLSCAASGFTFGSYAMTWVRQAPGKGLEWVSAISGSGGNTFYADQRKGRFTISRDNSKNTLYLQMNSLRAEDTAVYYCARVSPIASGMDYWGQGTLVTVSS VL: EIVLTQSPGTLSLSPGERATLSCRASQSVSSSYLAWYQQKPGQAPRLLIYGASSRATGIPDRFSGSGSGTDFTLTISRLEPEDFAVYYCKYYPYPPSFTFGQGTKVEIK",
    "T ½ (min)": 11.7
  },
  {
    "binder": "L3.PY/L3.KY/H3.TAQ (antibody, V domains shown, IgG) VH: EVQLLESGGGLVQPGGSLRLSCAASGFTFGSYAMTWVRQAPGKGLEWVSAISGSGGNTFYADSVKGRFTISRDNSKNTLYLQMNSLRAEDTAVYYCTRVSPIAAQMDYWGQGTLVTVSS VL: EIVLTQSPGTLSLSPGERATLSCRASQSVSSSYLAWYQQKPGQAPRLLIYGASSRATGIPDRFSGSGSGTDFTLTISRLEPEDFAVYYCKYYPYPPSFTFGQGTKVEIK",
    "T ½ (min)": 17.8
  },
  {
    "binder": "L3.PY/H2.DY (antibody, V domains shown, IgG) VH: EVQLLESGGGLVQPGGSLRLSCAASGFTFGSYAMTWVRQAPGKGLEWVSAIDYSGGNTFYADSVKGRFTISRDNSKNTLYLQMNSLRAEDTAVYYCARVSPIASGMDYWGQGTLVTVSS VL: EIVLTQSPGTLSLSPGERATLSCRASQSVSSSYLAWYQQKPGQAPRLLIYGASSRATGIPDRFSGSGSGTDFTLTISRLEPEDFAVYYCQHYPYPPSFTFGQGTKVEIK",
    "T ½ (min)": 8.37
  },
  {
    "binder": "L3.PY/L1.AH/H2.DY (antibody, V domains shown, IgG) VH: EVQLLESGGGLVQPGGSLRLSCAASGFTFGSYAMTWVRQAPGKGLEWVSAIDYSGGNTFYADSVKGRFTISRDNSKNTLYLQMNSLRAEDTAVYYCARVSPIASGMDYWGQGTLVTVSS VL: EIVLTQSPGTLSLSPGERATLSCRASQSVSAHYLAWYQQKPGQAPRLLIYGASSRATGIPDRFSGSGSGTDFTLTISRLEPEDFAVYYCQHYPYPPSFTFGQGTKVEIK",
    "T ½ (min)": 7.62
  },
  {
    "binder": "L3.PY/H3.AE (antibody, V domains shown, IgG) VH: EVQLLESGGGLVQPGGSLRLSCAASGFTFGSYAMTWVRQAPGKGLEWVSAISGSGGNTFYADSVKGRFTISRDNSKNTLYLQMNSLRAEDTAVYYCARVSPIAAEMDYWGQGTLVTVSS VL: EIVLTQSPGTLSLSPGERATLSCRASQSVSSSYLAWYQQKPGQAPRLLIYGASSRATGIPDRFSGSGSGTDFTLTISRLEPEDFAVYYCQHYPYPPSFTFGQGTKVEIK",
    "T ½ (min)": 8.32
  },
  {
    "binder": "L3.PY/L1.FF/H3.AQ (antibody, V domains shown, IgG) VH: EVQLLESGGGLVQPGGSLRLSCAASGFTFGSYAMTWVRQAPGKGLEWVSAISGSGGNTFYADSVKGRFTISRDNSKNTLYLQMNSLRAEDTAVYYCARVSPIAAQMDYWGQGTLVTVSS VL: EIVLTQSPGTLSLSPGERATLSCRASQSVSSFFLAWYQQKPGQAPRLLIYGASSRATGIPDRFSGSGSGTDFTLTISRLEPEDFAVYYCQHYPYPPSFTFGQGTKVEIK",
    "T ½ (min)": 7.51
  },
  {
    "binder": "L3.PY/H2.QL (antibody, V domains shown, IgG) VH: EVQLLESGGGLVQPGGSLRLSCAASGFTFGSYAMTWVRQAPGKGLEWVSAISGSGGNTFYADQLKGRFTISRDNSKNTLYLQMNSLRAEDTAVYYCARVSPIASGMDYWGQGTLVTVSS VL: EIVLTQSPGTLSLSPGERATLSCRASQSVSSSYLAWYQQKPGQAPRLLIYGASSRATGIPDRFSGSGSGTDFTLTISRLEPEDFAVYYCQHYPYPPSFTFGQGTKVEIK",
    "T ½ (min)": 5.31
  },
  {
    "binder": "L3.PY/H3.AQ (antibody, V domains shown, IgG) VH: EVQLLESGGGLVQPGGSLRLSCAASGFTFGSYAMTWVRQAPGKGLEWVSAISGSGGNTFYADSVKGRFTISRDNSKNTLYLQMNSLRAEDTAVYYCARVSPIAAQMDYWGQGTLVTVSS VL: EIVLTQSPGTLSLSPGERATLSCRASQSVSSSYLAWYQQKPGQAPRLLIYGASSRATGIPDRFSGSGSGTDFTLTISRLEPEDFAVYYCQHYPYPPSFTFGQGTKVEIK",
    "T ½ (min)": 6.69
  },
  {
    "binder": "L3.PY/L3.KF/H2.YQ (antibody, V domains shown, IgG) VH: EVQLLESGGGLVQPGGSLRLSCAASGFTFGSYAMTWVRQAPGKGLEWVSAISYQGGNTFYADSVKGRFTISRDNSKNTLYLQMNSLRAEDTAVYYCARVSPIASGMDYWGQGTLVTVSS VL: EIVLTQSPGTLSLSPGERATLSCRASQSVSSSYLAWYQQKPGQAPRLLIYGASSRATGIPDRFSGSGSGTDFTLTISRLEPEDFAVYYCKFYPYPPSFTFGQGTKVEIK",
    "T ½ (min)": 5.18
  },
  {
    "binder": "L3.PY/L3.KY/H2.LT (antibody, V domains shown, IgG) VH: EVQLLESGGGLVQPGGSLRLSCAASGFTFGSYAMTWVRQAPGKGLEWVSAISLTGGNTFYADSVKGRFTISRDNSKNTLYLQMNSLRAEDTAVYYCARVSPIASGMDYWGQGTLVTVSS VL: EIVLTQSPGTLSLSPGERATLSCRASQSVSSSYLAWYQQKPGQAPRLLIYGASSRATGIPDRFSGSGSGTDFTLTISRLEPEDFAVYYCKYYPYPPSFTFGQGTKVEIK",
    "T ½ (min)": 12.8
  }
]

All values here come from patent US20160297884A1.
